Molecular target: T1, recombinant human CEACAM-1 (R&D Systems cat. no. 2244-CM-050) (human, UniProt P13688 35-428)
T1 construct: Coated on the ELISA plate at 0.5 ug/ml
T1 sequence (looked up): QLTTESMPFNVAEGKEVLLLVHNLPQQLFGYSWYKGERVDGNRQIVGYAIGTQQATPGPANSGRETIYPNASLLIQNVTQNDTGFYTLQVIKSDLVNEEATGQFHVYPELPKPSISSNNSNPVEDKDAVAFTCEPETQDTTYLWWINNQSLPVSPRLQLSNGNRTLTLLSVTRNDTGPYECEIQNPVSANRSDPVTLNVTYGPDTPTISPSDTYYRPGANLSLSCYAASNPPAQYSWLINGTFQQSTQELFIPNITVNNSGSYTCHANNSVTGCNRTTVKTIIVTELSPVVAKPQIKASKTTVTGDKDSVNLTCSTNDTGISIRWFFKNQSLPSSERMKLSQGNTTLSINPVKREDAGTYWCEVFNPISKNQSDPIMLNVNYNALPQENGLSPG
Test: competition ELISA on coated recombinant human CEACAM-1; competitor biotinylated chimeric CM-10 IgG1
For each entry below, report its IC50 value.
Numbers only; they are read as µg/mL.

[Q] May I ask what IC50 has been recorded for humanized anti-CEACAM-1 variant VH4/VK3, IgG1 (antibody, V domains shown, Tested as human IgG1 / kappa antibody; only the variable regions are tied to this variant) VH: QVQLVQSGAEVKKPGASVKVSCKASGYAFTNNLIEWVRQAPGQGLEWIGVINPGSGDTNYNEKFKGRATLTADKSISTAYMELSRLRSDDTAVYYCARGDYYGGFAVDYWGQGTTVTVSS VL: DIQMTQSPSSLSASVGDRVTITCRTSQDIGNYLNWYQQKPGKAVKLLIYYTSRLHSGVPSRFSGSGSGTDYTFTISSLQPEDIATYFCQQGKSLPRTFGGGTKVEIK ?
[A] 0.99

[Q] May I ask what IC50 has been recorded for humanized anti-CEACAM-1 variant VH1/VK1, IgG1 (antibody, V domains shown, Tested as human IgG1 / kappa antibody; only the variable regions are tied to this variant) VH: QVQLVQSGAELKKPGASVKVSCKASGYAFTNNLIEWVKQAPGQGLEWIGVINPGSGDTNYNEKFKGRATLTADKSINTAYMELSSLTSDDSAVYFCARGDYYGGFAVDYWGQGTSVTVSS VL: DIQMTQSPSSLSASVGDRVTITCRTSQDIGNYLNWYQQKPGKAVKLLIYYTSRLHSGVPSRFSGSGSGTDYTLTISSLQQEDIATYFCQQGKSLPRTFGGGTKVEIK ?
[A] 0.78

[Q] May I ask what IC50 has been recorded for humanized anti-CEACAM-1 variant VH3/VK3, IgG1 (antibody, V domains shown, Tested as human IgG1 / kappa antibody; only the variable regions are tied to this variant) VH: QVQLVQSGAEVKKPGASVKVSCKASGYAFTNNLIEWVRQAPGQGLEWIGVINPGSGDTNYNEKFKGRATLTADKSINTAYMELSRLRSDDTAVYYCARGDYYGGFAVDYWGQGTTVTVSS VL: DIQMTQSPSSLSASVGDRVTITCRTSQDIGNYLNWYQQKPGKAVKLLIYYTSRLHSGVPSRFSGSGSGTDYTFTISSLQPEDIATYFCQQGKSLPRTFGGGTKVEIK ?
[A] 0.86

[Q] May I ask what IC50 has been recorded for humanized anti-CEACAM-1 variant VH3/VK3, IgG4 (S241P) (antibody, V domains shown, Tested as human IgG4 (S241P) / kappa antibody; only the variable regions are tied to this variant) VH: QVQLVQSGAEVKKPGASVKVSCKASGYAFTNNLIEWVRQAPGQGLEWIGVINPGSGDTNYNEKFKGRATLTADKSINTAYMELSRLRSDDTAVYYCARGDYYGGFAVDYWGQGTTVTVSS VL: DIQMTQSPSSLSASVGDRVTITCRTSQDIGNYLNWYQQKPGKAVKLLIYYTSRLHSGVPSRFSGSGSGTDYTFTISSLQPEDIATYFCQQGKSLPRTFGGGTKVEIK ?
[A] 0.73

[Q] May I ask what IC50 has been recorded for humanized anti-CEACAM-1 variant VH3/VK1, IgG1 (antibody, V domains shown, Tested as human IgG1 / kappa antibody; only the variable regions are tied to this variant) VH: QVQLVQSGAEVKKPGASVKVSCKASGYAFTNNLIEWVRQAPGQGLEWIGVINPGSGDTNYNEKFKGRATLTADKSINTAYMELSRLRSDDTAVYYCARGDYYGGFAVDYWGQGTTVTVSS VL: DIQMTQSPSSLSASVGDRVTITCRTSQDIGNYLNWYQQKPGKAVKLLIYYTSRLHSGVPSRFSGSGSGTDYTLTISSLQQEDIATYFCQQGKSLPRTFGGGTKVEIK ?
[A] 0.69

[Q] May I ask what IC50 has been recorded for humanized anti-CEACAM-1 variant VH1/VK2, IgG1 (antibody, V domains shown, Tested as human IgG1 / kappa antibody; only the variable regions are tied to this variant) VH: QVQLVQSGAELKKPGASVKVSCKASGYAFTNNLIEWVKQAPGQGLEWIGVINPGSGDTNYNEKFKGRATLTADKSINTAYMELSSLTSDDSAVYFCARGDYYGGFAVDYWGQGTSVTVSS VL: DIQMTQSPSSLSASVGDRVTITCRTSQDIGNYLNWYQQKPGKAVKLLIYYTSRLHSGVPSRFSGSGSGTDYTLTISSLQPEDIATYFCQQGKSLPRTFGGGTKVEIK ?
[A] 0.7

[Q] May I ask what IC50 has been recorded for humanized anti-CEACAM-1 variant VH2/VK2, IgG1 (antibody, V domains shown, Tested as human IgG1 / kappa antibody; only the variable regions are tied to this variant) VH: QVQLVQSGAEVKKPGASVKVSCKASGYAFTNNLIEWVKQAPGQGLEWIGVINPGSGDTNYNEKFKGRATLTADKSINTAYMELSRLRSDDTAVYFCARGDYYGGFAVDYWGQGTTVTVSS VL: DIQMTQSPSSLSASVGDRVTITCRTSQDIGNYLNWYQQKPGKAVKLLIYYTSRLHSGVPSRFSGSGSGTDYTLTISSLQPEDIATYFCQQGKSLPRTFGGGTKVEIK ?
[A] 0.78

[Q] May I ask what IC50 has been recorded for humanized anti-CEACAM-1 variant VH3/VK1, IgG4 (S241P) (antibody, V domains shown, Tested as human IgG4 (S241P) / kappa antibody; only the variable regions are tied to this variant) VH: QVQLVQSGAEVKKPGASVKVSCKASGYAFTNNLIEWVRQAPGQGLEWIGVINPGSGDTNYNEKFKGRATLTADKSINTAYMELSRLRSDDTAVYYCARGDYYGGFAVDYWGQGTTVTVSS VL: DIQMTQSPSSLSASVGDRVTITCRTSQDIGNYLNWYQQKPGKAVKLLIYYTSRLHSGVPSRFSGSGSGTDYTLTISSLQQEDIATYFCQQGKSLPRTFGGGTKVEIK ?
[A] 0.71

[Q] May I ask what IC50 has been recorded for humanized anti-CEACAM-1 variant VH3/VK2, IgG1 (antibody, V domains shown, Tested as human IgG1 / kappa antibody; only the variable regions are tied to this variant) VH: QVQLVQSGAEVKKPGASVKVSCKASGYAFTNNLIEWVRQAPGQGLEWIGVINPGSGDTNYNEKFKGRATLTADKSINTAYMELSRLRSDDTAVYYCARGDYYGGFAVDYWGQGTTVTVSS VL: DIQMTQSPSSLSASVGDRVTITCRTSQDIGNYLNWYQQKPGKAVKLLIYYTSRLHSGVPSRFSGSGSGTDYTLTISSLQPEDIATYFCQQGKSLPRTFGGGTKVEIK ?
[A] 0.85

[Q] May I ask what IC50 has been recorded for humanized anti-CEACAM-1 variant VH4/VK2, IgG4 (S241P) (antibody, V domains shown, Tested as human IgG4 (S241P) / kappa antibody; only the variable regions are tied to this variant) VH: QVQLVQSGAEVKKPGASVKVSCKASGYAFTNNLIEWVRQAPGQGLEWIGVINPGSGDTNYNEKFKGRATLTADKSISTAYMELSRLRSDDTAVYYCARGDYYGGFAVDYWGQGTTVTVSS VL: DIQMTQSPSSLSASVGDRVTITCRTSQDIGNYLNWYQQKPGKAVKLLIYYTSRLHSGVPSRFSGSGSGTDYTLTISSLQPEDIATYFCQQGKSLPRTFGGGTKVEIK ?
[A] 0.69
